Experiment: Quantitative High-Throughput drug screen in 47 multiple myeloma cell lines against the NCATS MIPE library collection: KMS12PE_JCRB cell viability assay (AID 1918972); further: nearly all actives have a fitted effect of over 30% in size
Details: KMS12PE myeloma viability, CellTiter-Glo ATP, 48 h; series mostly up to 45.8 µM
From the text: PI: Beverly A. Mock Ph.D. Laboratory of Cancer Biology and Genetics, Center for Cancer Research, National Cancer Institute, National Institute of Health, Bethesda, Maryland […] 5; Detector; 425V; Luminescence; Viewlux PerkinElmer. […] 1. […] Briefly, the corresponding myeloma cell lines were screened in 1,536-well plates with 500 cells, 5-uL per well for inhibition of cell viability (assessed by measuring ATP levels with CellTiterGlo). […]
Results filed as inconclusive are left out. Activity calls are given as the source filed them. The call rests on the fitted dose curve; in most records, active means well fitted cell-killing curve with a large enough effect; inconclusive means small, poorly fitted or top-dose-only effect, or effect the other way; inactive means no such curve, though single readings can be large or run the other way.
Hi there, use one of these labels in your reply, thanks! active, inactive

Examples with answers:
In [3]: df
Out[3]:
                            smiles_notation       cat
0            CN(Cc1cc(Br)cc(Br)c1N)C1CCCCC1  inactive
1       CCN(C)C(=O)Oc1cccc([C@H](C)N(C)C)c1  inactive
2                 CNNCc1ccc(C(=O)NC(C)C)cc1  inactive
3  COCCCOc1cc(C[C@@H](C[C@H](N)[C@@H](O)C[C@H](C(=O)NCC(C)(C)C(N)=O)C(C)C)C(C)C)ccc1OC  inactive

## Input Could you please tell me the result logged for `C[C@@H](NCCCc1cccc(C(F)(F)F)c1)c1cccc2ccccc12` in this assay?
## Output active

## Input Hi, sorry to bother you, what did the test record for `Cc1ncc([N+](=O)[O-])n1CCO` ?
## Output inactive

## Input Hi, do you know how `NC(=O)c1cccnc1` came out in this test?
## Output inactive
